molecular target: T1, HLA-A*02:01 (human); test: UV peptide exchange ELISA
T1 construct: monomers captured on streptavidin plates; also called MHC class I
readoutName: peptide exchange yield

> print(dat)
        binder             readoutname  endpointvalue
1    IMEGTLTRV  peptide exchange yield      20 to 50%
2    GILARIASV  peptide exchange yield      50 to 75%
3    HLTEVYPEL  peptide exchange yield      50 to 75%
4    NLLELFVQL  peptide exchange yield      50 to 75%
5   YLLDDGTLVV  peptide exchange yield          ≥ 75%
6  GVVDPRAISVL  peptide exchange yield      20 to 50%
7   FLAEDPKVTL  peptide exchange yield      50 to 75%
8    GLLHLTLLL  peptide exchange yield      50 to 75%
